Data provenance is ChEMBL document CHEMBL1147697.

- MEASUREMENT DESCRIPTION: AUC in Beagle dog at 10 mg/kg, po
- Format: ADME, organism-based, Canis lupus familiaris
- Parameters: dose 10 mg/kg, route oral
- CONDITION CONTEXT: plasma
READOUT: AUC
Answer format: number, then unit.

Q) Looking for the measured AUC of Cc1cc(COc2ccc(C(=O)NC3(CC(=O)NO)CCOCC3)cc2)c2ccccc2n1 , can you help?
A) 7.72 µM·h

----------
- MEASUREMENT DESCRIPTION: Half life in Sprague-Dawley rat at 6.7 mg/kg, po
- Assay type: ADME, organism-based
- Set-up: dose 6.7 mg/kg, route oral
- CONDITION CONTEXT: in vivo
READOUT: half-life (h)
# value in h; strip the unit string

Q) Looking for the measured half-life of Cc1cc(COc2ccc(C(=O)NC3(CC(=O)NO)CCNCC3)cc2)c2ccccc2n1 , can you help?
A) 2.2

----------
- MEASUREMENT DESCRIPTION: Half life in Sprague-Dawley rat at 2 mg/kg, iv
- Format: ADME, organism-based
- Set-up: dose 2 mg/kg, route intravenous
- CONDITION CONTEXT: in vivo
READOUT: half-life (min)
# value in min; strip the unit string

Q) Looking for the measured half-life of Cc1cc(COc2ccc(C(=O)NC3(CC(=O)NO)CCOCC3)cc2)c2ccccc2n1 , can you help?
A) 18

----------
- MEASUREMENT DESCRIPTION: AUC in Sprague-Dawley rat at 2 mg/kg, iv
- Assay type: ADME, organism-based
- Set-up: dose 2 mg/kg, route intravenous
- CONDITION CONTEXT: plasma
READOUT: AUC (µM·h)
# value in µM·h; strip the unit string

Q) Looking for the measured AUC of Cc1cc(COc2ccc(C(=O)NC3(CC(=O)NO)CCOCC3)cc2)c2ccccc2n1 , can you help?
A) 2.21

----------
- MEASUREMENT DESCRIPTION: Half life in Beagle dog at 0.5 mg/kg, iv
- Format: ADME, organism-based, Canis lupus familiaris
- Design: dose 0.5 mg/kg, route intravenous
- CONDITION CONTEXT: in vivo
READOUT: half-life (h)
# value in h; strip the unit string

Q) Looking for the measured half-life of Cc1cc(COc2ccc(C(=O)NC3(CC(=O)NO)CCNCC3)cc2)c2ccccc2n1 , can you help?
A) 1.5

----------
- MEASUREMENT DESCRIPTION: Volume of distribution in Sprague-Dawley rat at 3.3 mg/kg, iv
- Format: ADME, organism-based
- Parameters: dose 3.3 mg/kg, route intravenous
- CONDITION CONTEXT: in vivo, read-out: Vdss
READOUT: Vd

Q) Looking for the measured Vd of Cc1cc(COc2ccc(C(=O)NC3(CC(=O)NO)CCNCC3)cc2)c2ccccc2n1 , can you help?
A) 0.3 L/kg

----------
- MEASUREMENT DESCRIPTION: Tmax in Beagle dog at 1 mg/kg, po
- Format: ADME, organism-based, Canis lupus familiaris
- Parameters: dose 1 mg/kg, route oral
- CONDITION CONTEXT: in vivo
READOUT: Tmax (min)
# value in min; strip the unit string

Q) Looking for the measured Tmax of Cc1cc(COc2ccc(C(=O)NC3(CC(=O)NO)CCNCC3)cc2)c2ccccc2n1 , can you help?
A) 37.8
